assay: Displacement of [3H]AMPA from AMPA receptor in rat brain membranes by scintillation counting method; assay type: cell membranes, Membrane
ASSAY METRIC: Ki (µM)

a. NC(Cc1ccc(Cl)c(-c2ccc(O)cc2)c1)C(=O)O (racemic)
b. NC(Cc1ccc(Cl)c(-c2cccc(O)c2)c1)C(=O)O (racemic)
c. NC(Cc1cc(-c2ccc(O)cc2)cc([N+](=O)[O-])c1)C(=O)O (racemic)
d. Nc1c(-c2cccc(O)c2)cc(CC(N)C(=O)O)cc1[N+](=O)[O-] (racemic)
Endpoint returns the given molecules ordered by ascending Ki. To answer, write out the labels according to the requested order.
b, d, c, a

1. NC(Cc1ccc([N+](=O)[O-])c(-c2ccc(O)cc2)c1)C(=O)O (racemic)
2. Nc1ccc(CC(N)C(=O)O)cc1-c1cccc(O)c1 (racemic)
Of the two listed items, which has the higher Ki? First: 1 Second: 2 To answer, give the label that identifies your chosen option.
1
